The measurements presented in this section are drawn from patent US4048307A.

- Assayed system: Hog Brain Phosphodiesterase (PDE)
- Measurement protocol: Inhibition of c-AMP hydrolysis by hog brain phosphodiesterase (PDE)
- Experimental context: Lineweaver-Burk plot slope and Dixon plot cross-point; read-out: Inhibition II: Inhibition Constant (Ki)
Endpoint name: log10(Ki) (log10 of the value in µM)
Recorded Ki (log10, µM)

For orientation, consider the following solved cases.
{"columns": ["Compound", "Endpoint name", "Obs value"],
 "data": [
  ["CCCCCCCCCCCSc1nc2c(N)ncnc2n1[C@@H]1O[C@@H]2COP(=O)(O)O[C@H]2[C@H]1O [8-CH3 (CH2)10 S-c-AMP, 8-n-undecylmercapto-c-AMP]", "log10(Ki)", 1.94],
  ["CCCSc1nc2c(N)ncnc2n1[C@@H]1O[C@@H]2COP(=O)(O)O[C@H]2[C@H]1O [8-CH3 (CH2)2 S-c-AMP, 8-n-propylmercapto-c-AMP]", "log10(Ki)", 1.89],
  ["CCCNc1nc2c(N)ncnc2n1[C@@H]1O[C@@H]2COP(=O)(O)O[C@H]2[C@H]1O [8-CH3 (CH2)2 NH-c-AMP, 8-n-propylamino-c-AMP]", "log10(Ki)", 2.36],
  ["CCCCCCCCCCNc1nc2c(N)ncnc2n1[C@@H]1O[C@@H]2COP(=O)(O)O[C@H]2[C@H]1O [8-CH3 (CH2)9 NH-c-AMP, 8-n-decylamino-c-AMP]", "log10(Ki)", 1.91],
  ["CCCCCCCCCCCNc1nc2c(N)ncnc2n1[C@@H]1O[C@@H]2COP(=O)(O)O[C@H]2[C@H]1O [8-CH3 (CH2)10 NH-c-AMP, 8-n-undecylamino-c-AMP]", "log10(Ki)", 2.23],
  ["CCCCCCSc1nc2c(N)ncnc2n1[C@@H]1O[C@@H]2COP(=O)(O)O[C@H]2[C@H]1O [8-CH3 (CH2)5 S-c-AMP, 8-n-hexylmercapto-c-AMP]", "log10(Ki)", 1.28],
  ["CCCCCCCCCSc1nc2c(N)ncnc2n1[C@@H]1O[C@@H]2COP(=O)(O)O[C@H]2[C@H]1O [8-CH3 (CH2)8 S-c-AMP, 8-n-nonylmercapto-c-AMP]", "log10(Ki)", 1.49],
  ["CCCCSc1nc2c(N)ncnc2n1[C@@H]1O[C@@H]2COP(=O)(O)O[C@H]2[C@H]1O [8-CH3 (CH2)3 S-c-AMP, 8-n-butylmercapto-c-AMP]", "log10(Ki)", 1.87]
]}

Requested field: log10(Ki). Item: CCCCCSc1nc2c(N)ncnc2n1[C@@H]1O[C@@H]2COP(=O)(O)O[C@H]2[C@H]1O [8-CH3 (CH2)4 S-c-AMP, 8-n-amylmercapto-c-AMP]
1.60

Again, but for CCCCCCNc1nc2c(N)ncnc2n1[C@@H]1O[C@@H]2COP(=O)(O)O[C@H]2[C@H]1O [8-CH3 (CH2)5 NH-c-AMP, 8-n-hexylamino-c-AMP]
1.76
